Assay: qHTS Validation assay for Inhibitors of Plasmodium falciparum Dd2 growth in vitro; note: nearly all actives have a fitted effect of over 70% in size
Conditions: P. falciparum Dd2 in RBCs, SYBR Green growth, 72 h; series mostly up to 28.7 µM
Out of some 4,100 compounds screened, about 1,600 (39%) were called active. Roughly 25% stayed inconclusive and do not appear here. Calls come from the whole dose curve; as a rule, active = well fitted inhibition curve with a large enough effect; inconclusive = small, poorly fitted or top-dose-only effect; inactive = no such curve, though single readings can be large or run the other way. This is one part of the list.
Your response should consist of one outcome taken from active, inactive

Answered examples (6):
{"compound": "O=C(c1cccs1)N1CCC(n2cc(-c3nc(-c4ccccc4)no3)nn2)CC1", "answer-label": "inactive"}
{"compound": "CC(C)(C)NC(=O)c1ccc(-c2nnc3ccc(NC(=O)C4CC4)cn23)cc1", "answer-label": "active"}
{"compound": "O[C@]1(c2ccccc2)CCN(Cc2ccco2)C[C@H]1N1CCCC1", "answer-label": "active"}
{"compound": "CCOc1ccc(CN2CC[C@@](C)(O)[C@H](N3CCCC3)C2)cc1", "answer-label": "inactive"}
{"compound": "COC(=O)c1nn(-c2ccc3c(c2)CCN3C(C)=O)cc1O", "answer-label": "inactive"}
{"compound": "CCOc1ccc(C(=O)Nc2cccc(-c3nnc4n3CCCC4)c2)cc1", "answer-label": "inactive"}

Please state the recorded outcome for this compound: O=C(c1cccs1)N1CCC(O)(c2ccccc2)[C@H](N2CCCC2)C1 (stereo not given in full)
active

Same lookup for "O[C@]1(c2ccccc2)CCN(Cc2ccncc2)C[C@H]1N1CCCC1" , please.
active

Then "COc1ccc(NC(=O)c2ccc(-c3nnc4ccc(NC(=O)C5CC5)cn34)cc2)cc1" ?
active

Next compound: O=C(CC1CCN(C(=O)c2cccs2)C1)NCc1ccccc1 (stereo not given)
inactive

---

Assay: qHTS Validation assay for Inhibitors of Plasmodium falciparum Dd2 growth in vitro; note: nearly all actives have a fitted effect of over 70% in size
Conditions: P. falciparum Dd2 in RBCs, SYBR Green growth, 72 h; series mostly up to 28.7 µM
The whole screen tested about 4,100 compounds, of which about 1,600 (39%) were called active. About 25% were inconclusive and are not listed. The call rests on the fitted dose curve; in most records, active means well fitted inhibition curve with a large enough effect; inconclusive means small, poorly fitted or top-dose-only effect; inactive means no such curve, though single readings can be large or run the other way. The list shows a part of the results.
Select the matching outcome among active, inactive

{"compound": "COC1CN(c2ccc(C)cc2)C12CCN(C(=O)CCc1nc3ccccc3s1)CC2 (stereo unspecified)", "answer-label": "active"}
{"compound": "CCN1C(=O)C2CC3(CCN(C(=O)CCc4nc5ccccc5[nH]4)CC3)CN2C1=O (stereo unspecified)", "answer-label": "inactive"}
{"compound": "CC(NC(=O)c1ccc(NC(=O)c2ccco2)cc1)c1ccccc1 (stereo unspecified)", "answer-label": "inactive"}
{"compound": "O=C(/C(=C/c1ccc(Cl)cc1)c1nc2ccccc2[nH]1)c1cccs1", "answer-label": "active"}

Please share the test call associated with "CCOC(=O)c1ccc(NC(=O)c2ccco2)cc1" .
inactive

Same again, this time with "CCCCCCNC(=O)Cc1csc2nc(C)c(-c3cc(C)n(-c4cccc(C)c4)n3)c(=O)n12"
active

---

Test: qHTS Validation assay for Inhibitors of Plasmodium falciparum Dd2 growth in vitro; note: nearly all actives have a fitted effect of over 70% in size; note: potency is the fitted concentration of half-maximal effect
Details: P. falciparum Dd2 in RBCs, SYBR Green growth, 72 h; series mostly up to 28.7 µM
Description: Malaria, a parasitic disease spread to humans through the bite of a Plasmodium infected Anopheles mosquito, continues to be a global health burden affecting millions of people, with an estimated 228 million cases and 405,000 deaths in 2018. Concerns about safety and limitations of current antimalarial treatments strongly emphasize the need to develop new therapeutic options. […]
Hit rate of the full screen: of about 4,100 compounds, about 1,600 (39%) were called active. Another 25% or so got no clear call; they are omitted. The list shows a part of the results.
quantity-kind: Potency

Consider the following illustrative entries.
{"molecule": "O=C1CC2CCCC(C1)N2C(=O)c1ccc(C(F)(F)F)cc1", "Potency": "inactive"}
{"molecule": "C=C(C)COc1ccc(-c2ncnc(C(F)(F)F)c2-c2ccc(OC)cc2)c(O)c1", "Potency": "2.99 µM (active)"}
{"molecule": "Nc1cc[n+](CC(=O)c2ccc3c(c2)OCCO3)cc1", "Potency": "13.3 µM (active)"}
{"molecule": "O=C1NC2(CCN(Cc3ccc(C(F)(F)F)cc3)CC2)COc2ccccc21", "Potency": "8.41 µM (active)"}
{"molecule": "COc1cccc([S+](=O)([O-])N2CCC3(COc4ccccc4C(=O)N3)C2)c1 (stereo unspecified)", "Potency": "inactive"}

Here is the next item to consider.
For the molecule shown here, "O=C1NC2(CN(Cc3ccc(F)cc3)C2)Oc2ccccc21" , give the reported Potency.
inactive

---

Assay: qHTS Validation assay for Inhibitors of Plasmodium falciparum Dd2 growth in vitro; note: nearly all actives have a fitted effect of over 70% in size
Settings: P. falciparum Dd2 in RBCs, SYBR Green growth, 72 h; series mostly up to 28.7 µM
In all, about 4,100 compounds went through this assay and about 1,600 (39%) were called active. Another 25% or so got no clear call; they are omitted. The call rests on the fitted dose curve; in most records, active means well fitted inhibition curve with a large enough effect; inconclusive means small, poorly fitted or top-dose-only effect; inactive means no such curve, though single readings can be large or run the other way. The list shows a part of the results.
Mark one answer only. Choices: active, inactive

Previously resolved entries follow.
{"compound": "N=c1ccn(Cc2ccc(Cl)c(Cl)c2)cc1", "answer-label": "active"}
{"compound": "O=C(Nc1nc(-c2ccccn2)cs1)c1ccc(F)c(S(=O)(=O)N2CCOCC2)c1", "answer-label": "active"}
{"compound": "COc1ccc(CNC(=O)N2CCCC(CN3CCCC3)CC2)cc1 (stereo not given)", "answer-label": "inactive"}

Query: recorded result category for CCOc1cc(C2c3c(-c4ccccc4O)n[nH]c3C(=O)N2Cc2cccnc2)ccc1O (stereo not given) in this test
inactive

Same question for "O=C(Nc1nc(-c2ccccn2)cs1)c1cccc(S(=O)(=O)N2CCOCC2)c1" please.
active

COc1ccc(-c2csc(NC(=O)C(CC(=O)O)N3CCOCC3)n2)cc1 (stereo not given) ?
inactive

Queued: "CC(C)N(C)Cc1nnnn1CC(=O)N1CCC(O)(c2cccnc2)CC1"
inactive

And for "COC(=O)c1ccc(NC(=O)CSc2nc3cc4ccccc4cc3[nH]2)cc1" ?
inactive

Here is the next compound: "Cc1ccc(S(=O)(=O)N(C)CC2CCOCC2)c(C)c1"
inactive

Okay, and CCCCN1C(=O)c2[nH]nc(-c3ccccc3O)c2C1c1ccc(OCc2ccccc2)cc1 (stereo not given) ?
active

---

Test: qHTS Validation assay for Inhibitors of Plasmodium falciparum Dd2 growth in vitro; note: nearly all actives have a fitted effect of over 70% in size
Conditions: P. falciparum Dd2 in RBCs, SYBR Green growth, 72 h; series mostly up to 28.7 µM
The campaign covered roughly 4,100 compounds. About 1,600 (39%) were called active. Not shown: some 25% with an inconclusive outcome. Calls follow the shape of the dose curve; as a rule, active = well fitted inhibition curve with a large enough effect; inconclusive = small, poorly fitted or top-dose-only effect; inactive = no such curve, though single readings can be large or run the other way. The list shows a part of the results.
Bench note: report the call from T = active, F = inactive

Please review the following examples before continuing.
{"entry-smiles": "CC(C)C[C@H]1NC(=O)[C@@H]2C[C@@H](NC(=O)CS(=O)(=O)c3ccccc3)CCN2C1=O", "answer-label": "F"}
{"entry-smiles": "O=S(=O)(c1ccc(Cl)cc1)N1CCN(C(=S)Nc2ccccc2F)CC1", "answer-label": "T"}
{"entry-smiles": "O=c1nc2ccccn2c2ccc(S(=O)(=O)N3CCCCC3)cc12", "answer-label": "F"}

Okay, next one:
In this assay, the call recorded for "O=S(=O)(c1ccc2ccccc2c1)N1CCN(C(=S)Nc2ccccc2F)CC1" was what?
T

---

Experiment: qHTS Validation assay for Inhibitors of Plasmodium falciparum Dd2 growth in vitro; note: nearly all actives have a fitted effect of over 70% in size
Details: P. falciparum Dd2 in RBCs, SYBR Green growth, 72 h; series mostly up to 28.7 µM
In all, about 4,100 compounds went through this assay and about 1,600 (39%) were called active. Another 25% or so got no clear call; they are omitted. Calls come from the whole dose curve; as a rule, active = well fitted inhibition curve with a large enough effect; inconclusive = small, poorly fitted or top-dose-only effect; inactive = no such curve, though single readings can be large or run the other way. Some of the results follow.
Outcomes you can answer with include only these: active, inactive

Check out these entries, answers already filled in.
{"molecule": "CCOC(=O)c1c(C)c(-c2ccccc2)n(CC(=O)NC2CCCCCC2)c1C", "answer-label": "inactive"}
{"molecule": "Cc1ccc(NC(=O)c2c(C)oc3ccc(O)c(CN4CCCCCC4)c23)c(C)c1", "answer-label": "active"}
{"molecule": "Cc1ccc(CN2CCc3nc(C(=O)Nc4cccnc4)oc3CC2)cc1", "answer-label": "inactive"}
{"molecule": "CCOC(=O)c1c(-c2ccccc2)oc2ccc(O)c(CN3CCCC3)c12", "answer-label": "active"}

Next molecule, please.
# outcome recorded in this test, key = Cc1ccc(-c2cc(C(F)(F)F)n3ncc(C(=O)N4CCCCC4c4cccnc4)c3n2)cc1 (stereo not given)
active

---

Assay: qHTS Validation assay for Inhibitors of Plasmodium falciparum Dd2 growth in vitro; note: nearly all actives have a fitted effect of over 70% in size; note: potency is the fitted concentration of half-maximal effect
Conditions: P. falciparum Dd2 in RBCs, SYBR Green growth, 72 h; series mostly up to 28.7 µM
Among all 4,100 compounds or so, about 1,600 (39%) were called active. Not shown: some 25% with an inconclusive outcome. The list shows a part of the results.
quantity-kind: Potency

// known answers, use as guide
{"molecule": "COc1ccc(Nc2cc(C)nc(NCc3ccccc3)n2)cc1", "Potency": "13.3 µM (active)"}
{"molecule": "CCn1cc(-c2ccncc2)cc1C(=O)NCc1cccc(OC)c1", "Potency": "inactive"}
{"molecule": "Cc1nc2sc(C(c3ccco3)N3CCN(C(c4ccccc4)c4ccccc4)CC3)c(O)n2n1 (stereo unspecified)", "Potency": "5.96 µM (active)"}
{"molecule": "CCN(CC)c1ccc(-n2nc3cc(C)c(NC(=O)c4ccccc4F)cc3n2)cc1", "Potency": "inactive"}

Form field: reported Potency of "Cc1ccc(/C=N/Nc2cc(C)nc(NCc3ccccc3)n2)cc1"
5.31 µM (active)
